# SYSTEM: PI3Kβ (Homo sapiens, UniProt P42338)
# Sequence (P42338 whole entry): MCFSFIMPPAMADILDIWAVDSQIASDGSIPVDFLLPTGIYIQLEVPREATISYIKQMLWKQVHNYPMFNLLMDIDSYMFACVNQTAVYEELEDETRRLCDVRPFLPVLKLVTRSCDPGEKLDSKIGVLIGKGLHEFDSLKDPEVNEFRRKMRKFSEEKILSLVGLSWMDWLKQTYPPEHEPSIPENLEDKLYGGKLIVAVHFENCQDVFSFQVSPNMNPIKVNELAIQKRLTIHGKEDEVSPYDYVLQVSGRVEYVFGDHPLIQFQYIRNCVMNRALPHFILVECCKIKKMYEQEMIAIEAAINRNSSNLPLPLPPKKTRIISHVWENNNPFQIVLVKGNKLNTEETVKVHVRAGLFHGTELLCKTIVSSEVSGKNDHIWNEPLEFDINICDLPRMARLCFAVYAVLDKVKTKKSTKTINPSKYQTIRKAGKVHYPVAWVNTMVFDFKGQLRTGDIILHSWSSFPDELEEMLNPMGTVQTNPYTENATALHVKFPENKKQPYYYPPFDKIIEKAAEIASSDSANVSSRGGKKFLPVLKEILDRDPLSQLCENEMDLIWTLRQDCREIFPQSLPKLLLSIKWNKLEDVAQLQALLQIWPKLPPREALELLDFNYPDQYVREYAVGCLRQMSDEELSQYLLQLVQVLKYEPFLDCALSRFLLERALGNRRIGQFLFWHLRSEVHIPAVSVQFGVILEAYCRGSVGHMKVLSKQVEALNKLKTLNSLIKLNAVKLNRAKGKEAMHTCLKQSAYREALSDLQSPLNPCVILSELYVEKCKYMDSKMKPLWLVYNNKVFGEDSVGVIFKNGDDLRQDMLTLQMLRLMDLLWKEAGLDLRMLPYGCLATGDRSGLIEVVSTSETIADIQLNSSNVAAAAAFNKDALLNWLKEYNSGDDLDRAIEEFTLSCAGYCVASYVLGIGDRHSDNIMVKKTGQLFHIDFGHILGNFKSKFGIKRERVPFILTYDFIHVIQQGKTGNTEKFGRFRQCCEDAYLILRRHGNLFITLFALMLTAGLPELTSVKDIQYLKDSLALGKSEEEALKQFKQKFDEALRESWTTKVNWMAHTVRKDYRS
# Sequence (P27986 whole entry partner): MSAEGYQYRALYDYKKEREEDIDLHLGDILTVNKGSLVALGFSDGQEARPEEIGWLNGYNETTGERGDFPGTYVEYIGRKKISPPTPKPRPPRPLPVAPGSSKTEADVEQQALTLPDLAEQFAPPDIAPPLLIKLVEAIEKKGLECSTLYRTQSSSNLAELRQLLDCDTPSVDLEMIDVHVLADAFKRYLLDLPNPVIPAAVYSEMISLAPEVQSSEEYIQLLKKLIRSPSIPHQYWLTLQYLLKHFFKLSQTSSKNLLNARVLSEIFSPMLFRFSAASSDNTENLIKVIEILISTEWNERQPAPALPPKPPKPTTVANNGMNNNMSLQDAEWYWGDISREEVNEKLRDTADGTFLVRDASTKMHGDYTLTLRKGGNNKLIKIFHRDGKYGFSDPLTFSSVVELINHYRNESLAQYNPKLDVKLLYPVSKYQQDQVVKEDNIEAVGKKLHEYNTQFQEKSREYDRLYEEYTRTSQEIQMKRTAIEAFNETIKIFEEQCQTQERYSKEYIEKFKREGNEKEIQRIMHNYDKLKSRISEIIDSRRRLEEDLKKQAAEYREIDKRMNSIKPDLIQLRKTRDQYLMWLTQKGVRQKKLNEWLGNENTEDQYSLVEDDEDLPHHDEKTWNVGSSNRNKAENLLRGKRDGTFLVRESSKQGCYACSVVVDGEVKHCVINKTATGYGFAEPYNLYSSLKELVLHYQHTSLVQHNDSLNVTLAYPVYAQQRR
# ASSAY SUMMARY: ADP-Glo cell-free PI3K kinase activity assay
# CONDITION DESCRIPTION: read-out: IC50 PI3Kβ; Table 4
MEASUREMENT KIND: IC50

Per the records, this molecule ( CC(=O)c1c(C)n(-c2ccc(C)cc2)c2ccc(OCC(O)CNCc3ccc(Cl)cc3)cc12 (stereo not shown) [JN-KI3] ) has IC50 equal to > 20 µM

====

# SYSTEM: PI3Kα (Homo sapiens)
# Sequence (P42336 whole entry, one chain of several): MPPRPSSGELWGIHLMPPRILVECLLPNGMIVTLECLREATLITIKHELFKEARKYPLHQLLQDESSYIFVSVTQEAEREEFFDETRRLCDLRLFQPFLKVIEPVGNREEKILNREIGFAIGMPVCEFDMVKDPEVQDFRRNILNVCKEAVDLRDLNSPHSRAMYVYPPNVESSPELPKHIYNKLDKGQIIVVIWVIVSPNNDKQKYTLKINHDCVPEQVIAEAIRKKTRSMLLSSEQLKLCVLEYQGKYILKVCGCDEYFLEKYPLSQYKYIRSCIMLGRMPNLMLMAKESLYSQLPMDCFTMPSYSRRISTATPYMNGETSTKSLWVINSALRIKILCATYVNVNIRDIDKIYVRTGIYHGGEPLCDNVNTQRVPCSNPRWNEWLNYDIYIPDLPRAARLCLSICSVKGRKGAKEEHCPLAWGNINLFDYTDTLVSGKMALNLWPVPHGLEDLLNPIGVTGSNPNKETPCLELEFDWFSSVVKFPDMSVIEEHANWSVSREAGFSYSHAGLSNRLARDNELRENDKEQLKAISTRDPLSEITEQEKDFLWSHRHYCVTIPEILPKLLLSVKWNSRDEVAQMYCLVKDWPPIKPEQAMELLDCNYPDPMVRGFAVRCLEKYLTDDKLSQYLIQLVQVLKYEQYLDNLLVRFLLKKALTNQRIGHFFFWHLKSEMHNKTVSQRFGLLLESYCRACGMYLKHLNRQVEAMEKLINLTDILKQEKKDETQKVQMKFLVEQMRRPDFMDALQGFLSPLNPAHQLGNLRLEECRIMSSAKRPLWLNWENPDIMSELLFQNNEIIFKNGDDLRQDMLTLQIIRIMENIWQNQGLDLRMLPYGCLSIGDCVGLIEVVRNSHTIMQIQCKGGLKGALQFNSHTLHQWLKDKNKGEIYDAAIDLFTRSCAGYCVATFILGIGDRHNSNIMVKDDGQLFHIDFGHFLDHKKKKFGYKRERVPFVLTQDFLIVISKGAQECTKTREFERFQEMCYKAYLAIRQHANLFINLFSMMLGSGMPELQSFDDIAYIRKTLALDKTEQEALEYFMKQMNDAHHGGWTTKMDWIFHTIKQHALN
# ASSAY SUMMARY: ADP-Glo cell-free PI3K kinase activity assay
# CONDITION DESCRIPTION: read-out: Cell-free inhibitory IC50 PI3Kα; ATP 25 μM; average of triple tests
pIC50: −log10 of the molar value.
MEASUREMENT KIND: pIC50

Per the records, this molecule ( CC(=O)c1c(C)n(-c2ccc(C)cc2)c2ccc(OCC(O)CNCc3ccc(Cl)cc3)cc12 (stereo not shown) ) has pIC50 equal to < 4.70
